system: Plasmodium berghei; assay: Luciferase/luciferin-expressing antifolate-resistant parasites were used to infect a culture of HepG2 cells that were pre-incubated with compounds. Infected hepatocytes emit light due to the luciferase reaction. Assay results are presented as the percent inhibition of light emission compared to control. […]; type: functional; details: sporozoite, HEPG2TOX_HILL_SLOPE 1.54, HEPG2TOX_R_SQUARED 0.943, PBLUC_HILL_SLOPE 14.8, PBLUC_R_SQUARED 0.531, read-out: LUCIFERASE INFECTION ASSAY - IC50
pIC50: −log10 of the molar value.
QUANTITY MEASURED: pIC50

INSERT INTO measurements (mol, number) VALUES
  ('O=C(Nc1nnc(C(F)(F)F)s1)c1ccc(F)c(Cl)c1', 5.46);

---

tested on: Plasmodium berghei; test: Luciferase/luciferin-expressing antifolate-resistant parasites were used to infect a culture of HepG2 cells that were pre-incubated with compounds. Infected hepatocytes emit light due to the luciferase reaction. Assay results are presented as the percent inhibition of light emission compared to control. […]; type: functional; settings: sporozoite, PBLUC_HILL_SLOPE 13.2, PBLUC_R_SQUARED 0.406, read-out: LUCIFERASE INFECTION ASSAY - IC50
QUANTITY MEASURED: IC50 (nM)

INSERT INTO assay_data (mol, measurement_target, quantity_measured, measurement_units, number) VALUES
  ('O=C(CSCCc1nc(-c2ccc(Cl)cc2)cs1)N/N=C/c1ccccc1', 'Plasmodium berghei', 'IC50', 'nM', 2900);

---

test system: Plasmodium berghei; assay: Luciferase/luciferin-expressing antifolate-resistant parasites were used to infect a culture of HepG2 cells that were pre-incubated with compounds. Infected hepatocytes emit light due to the luciferase reaction. Assay results are presented as the percent inhibition of light emission compared to control. […]; type: functional; details: sporozoite, HEPG2TOX_HILL_SLOPE 2.66, HEPG2TOX_R_SQUARED 0.947, PBLUC_HILL_SLOPE 1.76, PBLUC_R_SQUARED 0.616, read-out: LUCIFERASE INFECTION ASSAY - IC50
QUANTITY MEASURED: IC50

INSERT INTO results (mol, result) VALUES
  ('CC(=O)c1cccc(-c2cnc3c(Nc4cccc(OC(F)(F)C(F)F)c4)nccn23)c1', '1720 nM');

---

system: Plasmodium berghei; experiment: Luciferase/luciferin-expressing antifolate-resistant parasites were used to infect a culture of HepG2 cells that were pre-incubated with compounds. Infected hepatocytes emit light due to the luciferase reaction. Assay results are presented as the percent inhibition of light emission compared to control. […]; assay type: functional; conditions: sporozoite, FFLUC_HILL_SLOPE 15.7, FFLUC_R_SQUARED 0.526, PBLUC_HILL_SLOPE 17, PBLUC_R_SQUARED 0.112, read-out: LUCIFERASE INFECTION ASSAY - IC50
pIC50: −log10 of the molar value.
QUANTITY MEASURED: pIC50

INSERT INTO measurements (compound, number) VALUES
  ('Cc1sc2ncn(CC(=O)NC(c3ccc(F)cc3)c3cccs3)c(=O)c2c1-c1ccccc1 (stereo unspecified)', 5.06);

---

test system: Plasmodium berghei; test: Luciferase/luciferin-expressing antifolate-resistant parasites were used to infect a culture of HepG2 cells that were pre-incubated with compounds. Infected hepatocytes emit light due to the luciferase reaction. Assay results are presented as the percent inhibition of light emission compared to control. […]; assay type: functional; settings: sporozoite, read-out: LUCIFERASE INFECTION ASSAY - IC90
Measured IC90 of individual entries
QUANTITY MEASURED: IC90

INSERT INTO results (molecule, result) VALUES
  ('COc1ccc(S(=O)(=O)Nc2cc(Sc3ccc(C)cc3)c(O)c3ccccc23)cc1', '> 10 µM'),
  ('O=S(=O)(NCC(Sc1nnc(Nc2ccccc2)s1)c1ccccc1)c1ccc(Cl)cc1 (stereo unspecified)', '> 10 µM'),
  ('O=C(Nc1ccc(-c2csc(N3CCOCC3)n2)cc1)c1ccc(Br)c([N+](=O)[O-])c1', '> 10 µM'),
  ('COc1ccc(C2c3c(C)nn(-c4ccccc4)c3N=C(c3ccccc3F)N2C2CC2)cc1 (stereo unspecified)', '> 10 µM'),
  ('O=C(On1c(-c2ccccc2)nc2ccccc2c1=O)c1ccc(F)cc1', '> 9.16 µM'),
  ('Cc1cc(N)c(N)cc1C', '6.18 µM'),
  ('COc1ccc([N+](=O)[O-])cc1C(=O)Nc1nc2c(s1)CCCCC2', '0.411 µM'),
  ('CCn1c(O)c(C2NCCc3c2[nH]c2ccc(OC)cc32)c(=O)[nH]c1=O (stereo unspecified)', '4.71 µM'),
  ('O=C(CSCc1nc2ccccc2[nH]1)Nc1nc(-c2ccc(NC(=O)c3ccccc3)cc2)cs1', '> 10 µM'),
  ('Cc1ccc(NC(=O)C(OC(=O)c2c(C)noc2C)c2ccccc2)cc1Cl (stereo unspecified)', '> 10 µM'),
  ('Cc1nn(-c2ccccc2)c2nc(-c3ccccc3)c(-c3nc4ccccc4[nH]3)c(-c3ccncc3)c12', '> 10 µM'),
  ('CCOC(=O)C1=C(N)n2c(s/c(=C\c3ccc(OC)cc3)c2=O)=CC1c1ccc(OC)cc1 (stereo unspecified)', '> 7.1 µM'),
  ('OCc1cccc(-c2cnc3ccc(-c4ccc(F)cc4)nn23)c1', '6.8 µM'),
  ('Cc1ccc(NC(=O)/C(=N/N)c2c(-c3ccccc3)nc3ccccn23)c(Br)c1', '> 10 µM'),
  ('O=C(c1cccc(-c2ccncc2)c1)c1cnc(Nc2cccc(Br)c2)[nH]1', '2.54 µM'),
  ('Cc1nn(Cc2nnc(SCC(=O)c3ccc(Cl)cc3)n2C)c(C)c1[N+](=O)[O-]', '> 7.84 µM'),
  ('COc1ccc(Cn2c3c(c4ccccc4c2=O)C(=O)c2ccccc2-3)cc1', '> 8.98 µM'),
  ('Cc1ccc(C(=O)c2c(NC(=O)CSc3nc4ccccc4n3CC(C)C)sc3c2CCCC3)cc1', '> 10 µM'),
  ('CCC(C)(C)NC(=O)CSC(c1ccc(F)cc1)c1ccc(F)cc1', '> 10 µM'),
  ('Cc1ccc(C(=O)C(/C=N/N)=N/Nc2cc(Cl)cc(Cl)c2)cc1', '> 9.45 µM'),
  ('Oc1c(C(Nc2nc3ccccc3s2)c2ccc(OC(F)F)cc2)ccc2cccnc12 (stereo unspecified)', '> 10 µM');
